experiment: Half-life in rat plasma was determined; type: ADME, organism-based
observation_type: half-life (min)

>>> value("CCC(CC)OC(=O)c1cn(Cc2ccccc2F)c2cc(-c3ccc(NC(C)=O)cc3)c(CN(C)CCc3ccccn3)n2c1=O")
28

====

target: Gonadotropin-releasing hormone receptor (Homo sapiens, UniProt P30968); experiment: Binding evaluated in cloned human Gonadotropin-releasing hormone receptor by displacement of [125 I-Tyr, DLeu, NMeLeu, Pro-NEt]GnRH agonist; conditions: read-out: Ki
Sequence (P30968 whole entry): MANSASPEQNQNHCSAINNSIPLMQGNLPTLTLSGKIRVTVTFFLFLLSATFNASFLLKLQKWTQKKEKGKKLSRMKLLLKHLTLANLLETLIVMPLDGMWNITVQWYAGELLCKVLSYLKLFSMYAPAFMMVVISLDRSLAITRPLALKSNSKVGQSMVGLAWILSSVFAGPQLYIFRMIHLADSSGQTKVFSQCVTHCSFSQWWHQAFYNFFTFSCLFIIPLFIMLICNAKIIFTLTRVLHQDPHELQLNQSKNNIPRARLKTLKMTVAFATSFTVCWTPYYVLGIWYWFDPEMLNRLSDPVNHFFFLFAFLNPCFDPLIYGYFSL
observation_type: Ki

>>> value("COc1ccc(-c2nc3n(Cc4ccccc4F)c(C)c(-c4ccc5c(c4)OCO5)c(=O)n3c2CN(C)CCc2ccccc2F)cc1")
"67 nM"
>>> value("COc1ccc(-c2nc3n(Cc4ccccc4F)c(C)c(-c4cccc(S)c4)c(=O)n3c2CN(C)CCc2ccccn2)cc1")
"56 nM"
>>> value("COc1ccc(-c2nc3n(Cc4ccccc4F)c(C)c(-c4cc(OC)c(OC)c(OC)c4)c(=O)n3c2CN(C)CCc2ccccn2)cc1")
"370 nM"
>>> value("COc1ccc(-c2nc3n(Cc4ccccc4F)c(C)c(-c4ccc5c(c4)OCO5)c(=O)n3c2CN(C)CCc2ccccc2)cc1")
"110 nM"
>>> value("COc1ccc(-c2nc3n(Cc4ccccc4F)c(C)c(-c4cccc(F)c4)c(=O)n3c2CN(C)CCc2ccccn2)cc1")
"79 nM"
>>> value("CCC(CC)OC(=O)c1cn(Cc2ccccc2F)c2nc(-c3ccc(OC)cc3)c(CN(C)CCc3ccccn3)n2c1=O")
"230 nM"
>>> value("COCCN(C)Cc1c(-c2ccc(OC)cc2)nc2n(Cc3ccccc3F)c(C)c(-c3ccc4c(c3)OCO4)c(=O)n12")
"150 nM"
>>> value("COc1ccc(-c2nc3n(Cc4ccccc4F)c(C)c(-c4cccc(OC)c4)c(=O)n3c2CN(C)CCc2ccccn2)cc1")
"4.6 nM"
>>> value("COc1ccc(-c2nc3n(Cc4ccccc4F)c(C)c(-c4cccc(C(F)(F)F)c4)c(=O)n3c2CN(C)CCc2ccccn2)cc1")
"140 nM"
>>> value("COc1ccc(-c2nc3n(Cc4ccccc4F)c(C)c(-c4ccc(OC)cc4)c(=O)n3c2CN(C)CCc2ccccn2)cc1")
"18 nM"
>>> value("CCN(CC)CCN(C)Cc1c(-c2ccc(OC)cc2)nc2n(Cc3ccccc3F)c(C)c(-c3ccc4c(c3)OCO4)c(=O)n12")
"130 nM"
>>> value("COc1ccc(-c2nc3n(Cc4ccccc4F)c(C)c(-c4ccc5c(c4)OCO5)c(=O)n3c2CN(C)CCc2ccccn2)cc1")
"11 nM"
>>> value("COc1ccc(-c2nc3n(Cc4ccccc4F)c(C)c(-c4ccccc4OC)c(=O)n3c2CN(C)CCc2ccccn2)cc1")
"65 nM"

Source listed as ChEMBL document CHEMBL1136027.
